Data provenance: PubChem BioAssay

MEASUREMENT_NOTES: Plasmodium falciparum growth inhibition, primary screen, strain 3D7, DAPI fluorescence, 100 nL (AID 1184);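 note: parasites grown inside human red blood cells in medium with human serum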
STATED_CONDITIONS: P. falciparum 3D7 growth, 3 d, higher = more signal
MEASURED_METRIC: z-score

LINE_NOTATION: COC(OC)[C@@H](C)[C@H](OC)[C@@H](C)[C@H](OC)c1ccccc1
RESULT: 0.129
--
LINE_NOTATION: C#CCCCON=C1C[C@@H](O)[C@@H](O)[C@@H]2[C@@H]3C(=O)N(C[C@@H]4CCCO4)C(=O)[C@@H]3CC[C@@H]12
RESULT: 1.38
--
LINE_NOTATION: CC(C)(C)N1C(=O)[C@H]2[C@@H]3C(=CC[C@H]2C1=O)C(=O)[C@H]1O[C@H]1[C@H]3O
RESULT: -2.38
--
LINE_NOTATION: COC(=O)CC=C[C@@H](C)[C@@H](C=NOC[C@@H](O)[C@H]1O[C@@H]2OC(C)(C)O[C@@H]2[C@H]1O)OC
RESULT: 0.364

* * *

ASSAYED_TARGET: Pro-neuregulin-1, membrane-bound isoform (Homo sapiens) (UniProt Q02297)
Sequence (Q02297 whole entry, looked up, canonical isoform): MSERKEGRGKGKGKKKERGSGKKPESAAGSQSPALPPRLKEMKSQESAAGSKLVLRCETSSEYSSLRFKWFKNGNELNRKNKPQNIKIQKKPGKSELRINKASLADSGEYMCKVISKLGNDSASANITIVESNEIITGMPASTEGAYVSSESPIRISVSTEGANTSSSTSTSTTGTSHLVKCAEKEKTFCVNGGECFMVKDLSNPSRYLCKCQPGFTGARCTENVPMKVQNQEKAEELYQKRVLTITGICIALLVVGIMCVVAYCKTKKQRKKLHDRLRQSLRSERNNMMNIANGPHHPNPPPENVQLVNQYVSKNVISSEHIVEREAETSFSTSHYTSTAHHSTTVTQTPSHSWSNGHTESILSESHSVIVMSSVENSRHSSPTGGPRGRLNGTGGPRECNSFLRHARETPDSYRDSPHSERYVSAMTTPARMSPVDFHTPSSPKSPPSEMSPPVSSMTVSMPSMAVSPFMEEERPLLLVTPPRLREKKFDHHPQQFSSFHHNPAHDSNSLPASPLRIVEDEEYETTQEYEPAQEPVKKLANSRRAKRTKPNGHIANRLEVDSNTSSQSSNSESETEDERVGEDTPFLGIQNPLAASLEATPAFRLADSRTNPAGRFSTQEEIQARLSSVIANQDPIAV
MEASUREMENT_NOTES: NRG1 binders on small-molecule microarrays, primary screen, psychiatric disease protein project, biochemical, small-molecule microarray, fluorescence 635/667 (AID 1075);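 note: score combines 667 nm spot fluorescence with signal to noise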
STATED_CONDITIONS: NRG1 binding, 635 nm fluorescence, higher = more signal
Returns one of 1 or -1; 1 when composite z-score is >= 0.8.

LINE_NOTATION: COc1ccc(COC(=O)NN=C2C[C@@H](O)[C@@H](O)[C@@H]3[C@@H]4C(=O)N(C5CCCCC5)C(=O)[C@@H]4CC[C@@H]23)cc1
ASSAYED_TARGET: Pro-neuregulin-1, membrane-bound isoform (Homo sapiens) (UniProt Q02297)
CATEGORY_LABEL: -1
--
LINE_NOTATION: CC(=O)OC[C@H]1O[C@H](CC=NOC[C@@H](O)[C@H]2O[C@@H]3OC(C)(C)O[C@@H]3[C@H]2O)C=C[C@@H]1OC(C)=O
ASSAYED_TARGET: Pro-neuregulin-1, membrane-bound isoform (Homo sapiens) (UniProt Q02297)
CATEGORY_LABEL: -1
--
LINE_NOTATION: O=C1C=C[C@@H](O)[C@@H]2[C@@H]3C(=O)N(C4CCCCC4)C(=O)[C@@H]3CC[C@@H]12
ASSAYED_TARGET: Pro-neuregulin-1, membrane-bound isoform (Homo sapiens) (UniProt Q02297)
CATEGORY_LABEL: -1
--
LINE_NOTATION: CCN1C(=O)[C@H]2[C@H]3[C@H](O)[C@H](O)CC(=NO[C@@H]4O[C@H](COC(C)=O)[C@@H](OC(C)=O)[C@H](OC(C)=O)[C@H]4OC(C)=O)[C@@H]3CC[C@H]2C1=O
ASSAYED_TARGET: Pro-neuregulin-1, membrane-bound isoform (Homo sapiens) (UniProt Q02297)
CATEGORY_LABEL: -1
--
LINE_NOTATION: CCOC(=O)CCN1C(=O)[C@H]2[C@H]3[C@H](O)[C@H](O)CC(=NO[C@@H]4O[C@H](CO)[C@@H](O)[C@H](O)[C@H]4O)[C@H]3CC[C@H]2C1=O
ASSAYED_TARGET: Pro-neuregulin-1, membrane-bound isoform (Homo sapiens) (UniProt Q02297)
CATEGORY_LABEL: -1
--
LINE_NOTATION: CC(=O)OC[C@H]1O[C@@H](ON=C(C)CCN2CCCCc3nc(C)c(C)cc32)[C@H](OC(C)=O)[C@@H](OC(C)=O)[C@@H]1OC(C)=O
ASSAYED_TARGET: Pro-neuregulin-1, membrane-bound isoform (Homo sapiens) (UniProt Q02297)
CATEGORY_LABEL: 1
